Reference source: patent US10160767B2

Assay: Solubility test (Chinese Pharmacopoeia 2010, Part II)
Type: physicochemical
Details: water, thermodynamic from solid
measured-property: solubility (mg/mL)
Express it in mg/mL; write the number only.

>  <smiles-notation>
CO[C@H]1C[C@@H]2CC[C@@H](C)[C@@](O)(O2)C(=O)C(=O)N2CCCC[C@H]2C(=O)O[C@H]([C@H](C)C[C@@H]2CC[C@@H](OC(=O)C[n+]3cccc(O)c3)[C@H](OC)C2)CC(=O)[C@H](C)/C=C(\C)[C@@H](OC(=O)C[n+]2cccc(O)c2)[C@@H](OC)C(=O)[C@H](C)C[C@H](C)/C=C/C=C/C=C/1C.[Br-].[Br-]

>  <solubility / mg/mL>
0.1

$$$$

Attention now turns to another entry.
For "CO[C@H]1C[C@@H]2CC[C@@H](C)[C@@](O)(O2)C(=O)C(=O)N2CCCC[C@H]2C(=O)O[C@H]([C@H](C)C[C@@H]2CC[C@@H](OC(=O)C[n+]3ccccc3)[C@H](OC)C2)CC(=O)[C@H](C)/C=C(\C)[C@@H](OC(=O)C[n+]2ccccc2)[C@@H](OC)C(=O)[C@H](C)C[C@H](C)/C=C/C=C/C=C/1C.[Br-].[Br-]" , what is its reported solubility?
85

---

measured-property: melting point

For "CO[C@H]1C[C@@H]2CC[C@@H](C)[C@@](O)(O2)C(=O)C(=O)N2CCCC[C@H]2C(=O)O[C@H]([C@H](C)C[C@@H]2CC[C@@H](OC(=O)C[n+]3cscc3C)[C@H](OC)C2)CC(=O)[C@H](C)/C=C(\C)[C@@H](OC(=O)C[n+]2cscc2C)[C@@H](OC)C(=O)[C@H](C)C[C@H](C)/C=C/C=C/C=C/1C.[Br-].[Br-]" , what is its reported melting point?
142 to 145 °C

For "CO[C@H]1C[C@@H]2CC[C@@H](C)[C@@](O)(O2)C(=O)C(=O)N2CCCC[C@H]2C(=O)O[C@H]([C@H](C)C[C@@H]2CC[C@@H](O)[C@H](OC)C2)CC(=O)[C@H](C)/C=C(\C)[C@@H](OC(=O)C[n+]2cscc2C)[C@@H](OC)C(=O)[C@H](C)C[C@H](C)/C=C/C=C/C=C/1C.[Br-]" , what is its reported melting point?
130 to 132 °C

For "CO[C@H]1C[C@@H]2CC[C@@H](C)[C@@](O)(O2)C(=O)C(=O)N2CCCC[C@H]2C(=O)O[C@H]([C@H](C)C[C@@H]2CC[C@@H](OC(=O)C[n+]3ccc(C)cc3)[C@H](OC)C2)CC(=O)[C@H](C)/C=C(\C)[C@@H](OC(=O)C[n+]2ccc(C)cc2)[C@@H](OC)C(=O)[C@H](C)C[C@H](C)/C=C/C=C/C=C/1C.[Br-].[Br-]" , what is its reported melting point?
181 to 183 °C

For "CO[C@H]1C[C@@H]2CC[C@@H](C)[C@@](O)(O2)C(=O)C(=O)N2CCCC[C@H]2C(=O)O[C@H]([C@H](C)C[C@@H]2CC[C@@H](O)[C@H](OC)C2)CC(=O)[C@H](C)/C=C(\C)[C@@H](OC(=O)C[n+]2ccc(C)cc2)[C@@H](OC)C(=O)[C@H](C)C[C@H](C)/C=C/C=C/C=C/1C.[Br-]" , what is its reported melting point?
145 to 148 °C

For "CO[C@H]1C[C@@H]2CC[C@@H](C)[C@@](O)(O2)C(=O)C(=O)N2CCCC[C@H]2C(=O)O[C@H]([C@H](C)C[C@@H]2CC[C@@H](OC(=O)C[n+]3cscc3C)[C@H](OC)C2)CC(=O)[C@H](C)/C=C(\C)[C@@H](O)[C@@H](OC)C(=O)[C@H](C)C[C@H](C)/C=C/C=C/C=C/1C.[Br-]" , what is its reported melting point?
130 to 133 °C

For "CO[C@H]1C[C@@H]2CC[C@@H](C)[C@@](O)(O2)C(=O)C(=O)N2CCCC[C@H]2C(=O)O[C@H]([C@H](C)C[C@@H]2CC[C@@H](OC(=O)C[n+]3cccc(O)c3)[C@H](OC)C2)CC(=O)[C@H](C)/C=C(\C)[C@@H](OC(=O)C[n+]2cccc(O)c2)[C@@H](OC)C(=O)[C@H](C)C[C@H](C)/C=C/C=C/C=C/1C.[Br-].[Br-]" , what is its reported melting point?
120 to 124 °C

For "CO[C@H]1C[C@@H]2CC[C@@H](C)[C@@](O)(O2)C(=O)C(=O)N2CCCC[C@H]2C(=O)O[C@H]([C@H](C)C[C@@H]2CC[C@@H](O)[C@H](OC)C2)CC(=O)[C@H](C)/C=C(\C)[C@@H](OC(=O)C[n+]2cccc(C)c2)[C@@H](OC)C(=O)[C@H](C)C[C@H](C)/C=C/C=C/C=C/1C.[Br-]" , what is its reported melting point?
138 to 140 °C
